pIC50: −log10 of the molar value.
// values below are pIC50; system is HBO-KAT7 (Homo sapiens)
Sequence (O95251 with tags, fused parts or gaps): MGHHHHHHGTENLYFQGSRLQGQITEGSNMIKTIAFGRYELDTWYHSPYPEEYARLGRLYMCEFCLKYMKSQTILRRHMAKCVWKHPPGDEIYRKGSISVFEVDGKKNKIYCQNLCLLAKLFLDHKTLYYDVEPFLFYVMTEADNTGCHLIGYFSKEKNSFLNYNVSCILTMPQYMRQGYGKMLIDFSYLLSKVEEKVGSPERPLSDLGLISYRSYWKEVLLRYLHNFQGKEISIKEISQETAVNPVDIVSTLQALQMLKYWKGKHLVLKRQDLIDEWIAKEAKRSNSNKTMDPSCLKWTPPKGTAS

| Mol | Qualifying Sign | pIC50 |
| --- | --- | --- |
| CCc1ccc(OC)c(S(=O)(=O)Nc2noc3ccc(C4CC4)cc23)c1 | = | 5.97 |
| CCc1ccc2onc(NS(=O)(=O)c3cc4c(cc3OC)CCCC4)c2c1 | = | 5.52 |
| O=S(=O)(Nc1noc2cccc(Cl)c12)c1ccc(F)c(F)c1F | < | 3.90 |
| CCc1ccc(OC)c(S(=O)(=O)Nc2noc3ccccc23)c1 | = | 4.22 |
| CCc1ccc(S(=O)(=O)Nc2noc3ccccc23)c(OC)c1 | = | 4.81 |
| O=S(=O)(Nc1noc2cccc(Cl)c12)c1cccc2scnc12 | = | 5.84 |
| COc1ccc(-c2ccccc2)c(OC)c1S(=O)(=O)Nc1noc2cccc(OC)c12 | = | 5.37 |
| O=S(=O)(Nc1noc2cccc(Cl)c12)c1ccc(Cl)cc1 | = | 4.46 |
| CCc1ccc(OC)c(S(=O)(=O)Nc2noc3ccc(CC)cc23)c1 | = | 6.09 |
| COc1cccc2onc(NS(=O)(=O)c3cccc4c3OCCC4)c12 | = | 5.83 |
| CCc1ccc(OC)c(S(=O)(=O)Nc2noc3cc(-n4cccn4)ccc23)c1 | = | 4.62 |
| CCc1ccc(OC)c(S(=O)(=O)Nc2noc3cccc(CC)c23)c1 | = | 6.20 |
| COc1cc(-c2ccccc2)cc(OC)c1S(=O)(=O)Nc1noc2cccc(OC)c12 | = | 6.12 |
| COc1cccc(OC)c1S(=O)(=O)Nc1noc2cccc([N+](=O)[O-])c12 | = | 4.36 |
| COc1cccc(OC)c1S(=O)(=O)Nc1noc2cc(Br)cc(OC)c12 | = | 6.77 |
| COc1cccc(OC)c1S(=O)(=O)Nc1noc2cccc(N)c12 | < | 3.90 |
| O=S(=O)(Nc1noc2ccccc12)c1ccc(C2CCCCC2)cc1 | = | 4.67 |
| O=S(=O)(Nc1noc2cccc(Cl)c12)c1cc(Br)cc2c1OCC2 | = | 5.02 |
| COc1cc(C)c(C(C)C)cc1S(=O)(=O)Nc1noc2cccc(Cl)c12 | = | 3.94 |

Source: patent US12365655B2
